# tgt: the molecule itself
# procedure text: HEK293-F co-expression, Protein A purification, non-reducing SDS-PAGE densitometry
Reported values of (FC)2 (homodimer)(%) for individual entries
// return numeric value only (unit: %, not printed)

• FcCH3B, B256 (D399V/K392G/K409M) (other, also called B256 CH3B chain) TCPPCPAPELLGGPSVFLFPPKPKDTLMISRTPEVTCVVVDVSHEDPEVKFNWYVDGVEVHNAKTKPREEQYNSTYRVVSVLTVLHQDWLNGKEYKCKVSNKALPAPIEKTISKAKGQPREPQVYTLPPSRDELTKNQVSLTCLVKGFYPSDIAVEWESNGQPENNYGTTPPVLVSDGSFFLYSMLTVDKSRWQQGNVFSCSVMHEALHNHYTQKSLSLSPGK = 16.7
• FcCH3B, B212 (D399G/K392G/K409M) (other, also called B212 CH3B chain) TCPPCPAPELLGGPSVFLFPPKPKDTLMISRTPEVTCVVVDVSHEDPEVKFNWYVDGVEVHNAKTKPREEQYNSTYRVVSVLTVLHQDWLNGKEYKCKVSNKALPAPIEKTISKAKGQPREPQVYTLPPSRDELTKNQVSLTCLVKGFYPSDIAVEWESNGQPENNYGTTPPVLGSDGSFFLYSMLTVDKSRWQQGNVFSCSVMHEALHNHYTQKSLSLSPGK = 33.8
• FcCH3B, B235 (D399C/K392G/K409M) (other, also called B235 CH3B chain) TCPPCPAPELLGGPSVFLFPPKPKDTLMISRTPEVTCVVVDVSHEDPEVKFNWYVDGVEVHNAKTKPREEQYNSTYRVVSVLTVLHQDWLNGKEYKCKVSNKALPAPIEKTISKAKGQPREPQVYTLPPSRDELTKNQVSLTCLVKGFYPSDIAVEWESNGQPENNYGTTPPVLCSDGSFFLYSMLTVDKSRWQQGNVFSCSVMHEALHNHYTQKSLSLSPGK = 6.9
• FcCH3B, B215 (D399W/K392G/K409M) (other, also called B215 CH3B chain) TCPPCPAPELLGGPSVFLFPPKPKDTLMISRTPEVTCVVVDVSHEDPEVKFNWYVDGVEVHNAKTKPREEQYNSTYRVVSVLTVLHQDWLNGKEYKCKVSNKALPAPIEKTISKAKGQPREPQVYTLPPSRDELTKNQVSLTCLVKGFYPSDIAVEWESNGQPENNYGTTPPVLWSDGSFFLYSMLTVDKSRWQQGNVFSCSVMHEALHNHYTQKSLSLSPGK = 20
• FcCH3B, B240 (D399G/K392G/K409M) (other, also called B240 CH3B chain) TCPPCPAPELLGGPSVFLFPPKPKDTLMISRTPEVTCVVVDVSHEDPEVKFNWYVDGVEVHNAKTKPREEQYNSTYRVVSVLTVLHQDWLNGKEYKCKVSNKALPAPIEKTISKAKGQPREPQVYTLPPSRDELTKNQVSLTCLVKGFYPSDIAVEWESNGQPENNYGTTPPVLGSDGSFFLYSMLTVDKSRWQQGNVFSCSVMHEALHNHYTQKSLSLSPGK = 11.9

Return (FC)2 (homodimer)(%) (reported value) for this protein: FcCH3B, B239 (D399S/K392G/K409M) (other, also called B239 CH3B chain) TCPPCPAPELLGGPSVFLFPPKPKDTLMISRTPEVTCVVVDVSHEDPEVKFNWYVDGVEVHNAKTKPREEQYNSTYRVVSVLTVLHQDWLNGKEYKCKVSNKALPAPIEKTISKAKGQPREPQVYTLPPSRDELTKNQVSLTCLVKGFYPSDIAVEWESNGQPENNYGTTPPVLSSDGSFFLYSMLTVDKSRWQQGNVFSCSVMHEALHNHYTQKSLSLSPGK
20.3

Return (FC)2 (homodimer)(%) (reported value) for this protein: FcCH3B, EW-RVT (Q347R/D399V/F405T) (other, also called EW-RVT CH3B chain) TCPPCPAPELLGGPSVFLFPPKPKDTLMISRTPEVTCVVVDVSHEDPEVKFNWYVDGVEVHNAKTKPREEQYNSTYRVVSVLTVLHQDWLNGKEYKCKVSNKALPAPIEKTISKAKGQPREPRVYTLPPSRDELTKNQVSLTCLVKGFYPSDIAVEWESNGQPENNYKTTPPVLVSDGSFTLYSKLTVDKSRWQQGNVFSCSVMHEALHNHYTQKSLSLSPGK
1.6

Data provenance: patent US20180346600A1
